# reported T/C; entries follow
tested on: CD2F1 mice, P1798 lymphosarcoma sc, tumor weight T/C; test: NCI In Vivo Anticancer Drug Screen. Data for tumor model P1798 Lymphosarcoma (subcutaneous) in CD2F1 (CDF1) mice; conditions: endpoint: mean tumor weight; dose: 2.0 mg/kg/injection; schedule: Q01DX010 (ip); vehicle: saline; higher = larger tumour

# annotated cases, reported T/C shown
compound	recorded-result
NC(Cc1c[nH]c2ccc(N(CCCl)CCCl)cc12)C(=O)O (stereo not given)	13 % of control
O=C(Nc1ccc(NC2=NCCN2)cc1)c1ccc(C(=O)Nc2ccc(NC3=NCCN3)cc2)cc1	78 % of control
CC(CCC(C)OS(C)(=O)=O)OS(C)(=O)=O (stereo not given)	101 % of control
N#Cc1cn(C2OC(CO)C(O)C2O)c2ncnc(N)c12 (stereo not given)	62 % of control

We now examine a further compound.
Q) Fill in the blank: the reported T/C of Nc1nc(F)nc2c1ncn2C1OC(CO)C(O)C1O (stereo not given) is ____.
A) 73 % of control

* * *

# reported T/C; entries follow
tested on: CD2F1 mice, P1798 lymphosarcoma sc, tumor weight T/C; experiment: NCI In Vivo Anticancer Drug Screen. Data for tumor model P1798 Lymphosarcoma (subcutaneous) in CD2F1 (CDF1) mice; settings: endpoint: mean tumor weight; dose: 50.0 mg/kg/injection; schedule: Q03DX004 (sc); vehicle: steriod suspending solution; higher = larger tumour

# annotated cases, reported T/C shown
compound	T/C
CC1C[C@@H]2[C@H]([C@@H](O)C[C@@]3(C)[C@H]2CC[C@]3(O)C(=O)CF)[C@@]2(C)CCC(=O)C=C12 (some centres not stated)	66 % of control
CC(=O)[C@@]12OC(C)(C)O[C@@H]1C[C@H]1[C@@H]3C[C@H](C)C4=CC(=O)CC[C@]4(C)[C@H]3CC[C@@]12C	59 % of control
C[C@]12C[C@H](O)[C@H]3[C@@H](CCC4=CC(=O)CC[C@@]43C)[C@@H]1CC[C@@H]2C(=O)CO	56 % of control
C[C@]12C=CC(=O)C=C1CC[C@H]1[C@@H]3C[C@@H](O)[C@](O)(C(=O)CO)[C@@]3(C)C[C@H](O)[C@@]12F	5 % of control
CC(=O)OCC(=O)[C@@]1(O)CC[C@H]2[C@@H]3CCC4=CC(=O)[C@H](C)C[C@]4(C)[C@H]3[C@@H](O)C[C@@]21C	17 % of control
CC(=O)[C@H]1CC[C@H]2[C@@H]3C[C@H](C)C4=CC(=O)CC[C@]4(C)[C@H]3C(=O)C[C@]12C	43 % of control

We now examine a further compound.
Q) Fill in the blank: the reported T/C of C[C@]12C=CC(=O)C=C1CC[C@@H]1[C@@H]2[C@@H](O)C[C@@]2(C)[C@H]1CC[C@]2(O)C(=O)CO is ____.
A) 92 % of control

* * *

tested on: CD2F1 mice, P1798 lymphosarcoma sc, tumor weight T/C; experiment: NCI In Vivo Anticancer Drug Screen. Data for tumor model P1798 Lymphosarcoma (subcutaneous) in CD2F1 (CDF1) mice; conditions: endpoint: mean tumor weight; dose: 50.0 mg/kg/injection; schedule: Q01DX010 (ip); vehicle: saline; higher = larger tumour
# reported T/C; entries follow

# annotated cases, reported T/C shown
compound	endpoint-name	recorded-result
Cc1ccc2[nH]c3nc4cc(C)c(C)cc4nc3c2c1	T/C	93 % of control
NCCCCC(N)C(=O)NCCCCCCNC(=O)CCCCC(=O)NCCCCCCNC(=O)C(N)CCCCN (stereo unspecified)	T/C	94 % of control

Q) Fill in the blank: the reported T/C of NCCCC(N)C(=O)NCCCCCCNCCCCCCNC(=O)C(N)CCCN (stereo unspecified) is ____.
A) 77 % of control

Q) And the next one, NC(N)=NCCCC(N)C(=O)NCCCCCCCCCCNC(=O)C(N)CCCN=C(N)N (stereo unspecified) ?
A) 99 % of control

* * *

# reported T/C; entries follow
Test system: CD2F1 mice, P1798 lymphosarcoma sc, tumor weight T/C
Assay: NCI In Vivo Anticancer Drug Screen. Data for tumor model P1798 Lymphosarcoma (subcutaneous) in CD2F1 (CDF1) mice
Details: endpoint: mean tumor weight; dose: 25.0 mg/kg/injection; schedule: Q01DX010 (ip); vehicle: saline; higher = larger tumour
Protocol: The antitumor activity of compounds was measured in mice bearing transplantable tumors. Survival or tumor size were measured and the results are expressed as the measurement made in the treated group (T) divided by the measurement made in the vehicle treated control group (C). The tumor model used in this assay is P1798 Lymphosarcoma (subcutaneous) in CD2F1 (CDF1) mice

compound	target-of-assay	endpoint-name	recorded-result
COC1C(OC(=O)/C=C/C=C/C=C/C=C/C(=O)O)CCC2(CO2)C1C1(C)OC1CC=C(C)C (configuration not stated)	CD2F1 mice, P1798 lymphosarcoma sc, tumor weight T/C	T/C	56 % of control
O=C(NCCCCC(NC(=O)c1ccccc1)C(=O)NCCCCCCCCCCNC(=O)C(CCCCNC(=O)c1ccccc1)NC(=O)c1ccccc1)c1ccccc1 (configuration not stated)	CD2F1 mice, P1798 lymphosarcoma sc, tumor weight T/C	T/C	93 % of control
NCCCCC(N)C(=O)NCCCCCCCCCCNC(=O)C(N)CCCCN (configuration not stated)	CD2F1 mice, P1798 lymphosarcoma sc, tumor weight T/C	T/C	122 % of control
NC(N)=NCCCC(N)C(=O)NCCCCCCCCCCNC(=O)C(N)CCCN=C(N)N (configuration not stated)	CD2F1 mice, P1798 lymphosarcoma sc, tumor weight T/C	T/C	78 % of control
CS(=O)(=O)OCCC(=O)N1CCN(C(=O)CCOS(C)(=O)=O)CC1	CD2F1 mice, P1798 lymphosarcoma sc, tumor weight T/C	T/C	71 % of control

Q) Fill in the blank: the reported T/C of NC(=O)n1cccn1 is ____.
A) 84 % of control

Q) And the next one, NC(N)=NCCCC(N)C(=O)NCCCCCCNC(=O)C(N)CCCN=C(N)N (configuration not stated) ?
A) 94 % of control

* * *

# reported T/C; entries follow
tested on: CD2F1 mice, P1798 lymphosarcoma sc, tumor weight T/C; experiment: NCI In Vivo Anticancer Drug Screen. Data for tumor model P1798 Lymphosarcoma (subcutaneous) in CD2F1 (CDF1) mice; conditions: endpoint: mean tumor weight; dose: 125.0 mg/kg/injection; schedule: Q01DX010 (ip); vehicle: saline; higher = larger tumour

# annotated cases, reported T/C shown
compound	T/C
COc1ccc2c(c1OC)C(=O)O[C@@H]2[C@H]1c2c(cc3c(c2OC)OCO3)CCN1C	97 % of control
CCCSc1ncnc2nc[nH]c12	21 % of control
CC(=O)Nc1ccc(/C=N/Nc2ccc([N+](=O)[O-])cn2)cc1	75 % of control

Q) Fill in the blank: the reported T/C of CCOC(N)=O is ____.
A) 95 % of control

Q) And the next one, Cc1cn(C2OC(CO)C(O)C2O)c(=O)[nH]c1=O (configuration not stated) ?
A) 96 % of control

Q) And the next one, O=c1cn[nH]c(=O)[nH]1 ?
A) 97 % of control

Q) And the next one, Nc1c(Br)cc2c(c1Br)Cc1cc([N+](=O)[O-])ccc1-2 ?
A) 61 % of control

* * *

system: CD2F1 mice, P1798 lymphosarcoma sc, tumor weight T/C; assay: NCI In Vivo Anticancer Drug Screen. Data for tumor model P1798 Lymphosarcoma (subcutaneous) in CD2F1 (CDF1) mice; details: endpoint: mean tumor weight; dose: 25.0 mg/kg/injection; schedule: Q02DX010 (sc); vehicle: steriod suspending solution; higher = larger tumour
endpoint-name: T/C

smiles-record	T/C
C[C@]12CCC(=O)C=C1CC[C@@H]1[C@@H]2[C@@H](O)C[C@@]2(C)[C@H]1CC[C@]2(O)C(=O)CO	105 % of control
C[C@]12C=CC(=O)C=C1CC[C@H]1[C@@H]3C[C@@H](O)[C@](O)(C(=O)CO)[C@@]3(C)C[C@H](O)[C@@]12F	115 % of control
C[C@@H]1C[C@H]2[C@@H]3CCC4=CC(=O)C=C[C@]4(C)[C@@]3(F)[C@@H](O)C[C@]2(C)[C@@]1(O)C(=O)CO	56 % of control
CC(=O)OCC(=O)[C@@]1(O)CC[C@H]2[C@@H]3CCC4=CC(=O)[C@H](C)C[C@]4(C)[C@@]3(F)[C@@H](O)C[C@@]21C	89 % of control
CC(=O)OCC(=O)[C@@]1(O)CC[C@H]2[C@@H]3CCC4=CC(=O)[C@H](C)C[C@]4(C)[C@H]3[C@@H](O)C[C@@]21C	96 % of control
CC(=O)[C@@]12OC(C)(C)O[C@@H]1C[C@H]1[C@@H]3C[C@H](C)C4=CC(=O)CC[C@]4(C)[C@H]3CC[C@@]12C	95 % of control

Q) Fill in the blank: the reported T/C of C[C@]12C=CC(=O)C=C1CC[C@@H]1[C@@H]2[C@@H](O)C[C@@]2(C)[C@H]1CC[C@]2(O)C(=O)CO is ____.
A) 100 % of control

Q) And the next one, CC(=O)[C@@]1(O)CC[C@H]2[C@@H]3C[C@H](C)C4=CC(=O)C=C[C@]4(C)[C@@]3(F)[C@@H](O)C[C@@]21C ?
A) 98 % of control

Q) And the next one, CC(=O)O[C@]1(C(C)=O)CC[C@H]2[C@@H]3C[C@H](C)C4=CC(=O)C=C[C@]4(C)[C@@]3(F)[C@@H](O)C[C@@]21C ?
A) 105 % of control
